B1: CLCN6 (parent)
chain: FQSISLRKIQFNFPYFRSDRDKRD

variants of: B1; assay: protein stability index of a GFP-peptide fusion (GPS, HEK-293T) (PSI 1-6); higher = more stable; conditions: c terminus: a fixed tail appended;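 further: lentivirally expressed fusions sorted by FACS into six bins by GFP to DsRed ratio, PSI derived from sequencing read proportions per bin multiplied by bin number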
Record form. Attribute: protein stability index. Fill in for each entry.
# answer = number (no unit)

(Q) What does the data say about its protein stability index? Entry: FQSISLRKIQFNFPYFRSDRDKRL [D24L]
(A) 2

(Q) What does the data say about its protein stability index? Entry: FQSISLRKIQFNFPYFRADRDKRD [S18A]
(A) 1.99

(Q) What does the data say about its protein stability index? Entry: FQSISHRKIQFNFPYFRSDRDKRD [L6H]
(A) 2.03

(Q) What does the data say about its protein stability index? Entry: FQSISLRKIDFNFPYFRSDRDKRD [Q10D]
(A) 2.04
